Numbers sourced from patent US20120128689A1.

Target: T1, cyno IL-23 (cyno, limits assumed)
T1 construct: Heterodimer of p19 and p40; also called cynomolgus IL-23
T1 chain 1: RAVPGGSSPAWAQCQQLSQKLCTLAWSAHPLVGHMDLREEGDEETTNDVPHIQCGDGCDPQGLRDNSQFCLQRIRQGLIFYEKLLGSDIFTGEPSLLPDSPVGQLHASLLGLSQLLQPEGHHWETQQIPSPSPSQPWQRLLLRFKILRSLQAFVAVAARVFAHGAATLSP
T1 chain 2: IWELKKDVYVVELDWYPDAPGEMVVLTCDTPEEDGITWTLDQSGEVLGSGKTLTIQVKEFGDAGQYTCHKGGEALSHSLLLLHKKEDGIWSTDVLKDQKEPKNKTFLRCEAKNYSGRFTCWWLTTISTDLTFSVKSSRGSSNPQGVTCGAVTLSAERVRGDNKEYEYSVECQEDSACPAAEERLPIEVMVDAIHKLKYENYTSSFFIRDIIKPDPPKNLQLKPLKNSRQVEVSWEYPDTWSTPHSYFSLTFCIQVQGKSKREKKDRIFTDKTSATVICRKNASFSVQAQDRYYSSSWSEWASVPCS
Assay: SPR Biacore T100, mAb from HEK supernatant captured on anti-human IgG, one concentration of cyno IL-23 (256 nM)
// reported Kd for each item listed
Quick reminder: number only, in pM, skip the unit.

For orientation, consider the following solved cases.
>>> reading("A6M20 (antibody, human IgG1, kappa, V domains shown) VH: QVQLVQSGAEVKKPGSSVKVSCKASGYTFTSYGITWVRQAPGQGLEWMGENYPRSGNTYYNEKFKGRVTITADKSTSTAYMELSSLRSEDTAVYYCARVEFISTVVAPYYYALDYWGQGTLVTVSS VL: DIVMTQSPDSLAVSLGERATINCKASKKVTIFGSISALHWYQQKPGQPPKLIYNLAKLESGVPDRFSGSGSGTDFTLTISSLQAEDVAVYYCLQNKEVPYTFGGGTKVEIKR")
136
>>> reading("A24AM18 (antibody, human IgG1, kappa, V domains shown) VH: QVQLVQSGAEVKKPGSSVKVSCKASGYTFTSYGITWVRQAPGQGLEWMGENYPRSGNIYYNEKFKGRVTITADKSTSTAYMELSSLRSEDTAVYYCARAEFISTVVAPYYYALDYWGQGTLVTVSS VL: DIVMTQSPDSLAVSLGERATINCKASKKVTIFGSTSALHWYQQKPGQPPKLIYNLAKPESGVPDRFSGSGSGTDFTLTISSLQAEDVAVYYCLQNKEVPYTFGGGTKVEIKR")
92

Query: // Input: A3M0 (antibody, human IgG1, kappa, V domains shown, human gamma1 and kappa constant regions; Tested as HEK supernatant and as purified antibody; also called A3M0 purified) VH: QVQLVQSGAEVKKPGSSVKVSCKASGYTFTSYGITWVRQAPGQGLEWMGENYPRSGNTYYNEKFKGRVTITADKSTSTAYMELSSLRSEDTAVYYCARSEFISTVVAPYYYALDYWGQGTLVTVSS VL: DIVMTQSPDSLAVSLGERATINCKASKKVTIFGSISALHWYQQKPGQPPKLIYNGAKLESGVPDRFSGSGSGTDFTLTISSLQAEDVAVYYCLQNKEVPYTFGGGTKVEIKR . Output its Kd only.
Reply: 365
